From: patent US9309242B2

Structures can show the parent of a compound that is named as a salt.

| compound | unit | melting point |
| --- | --- | --- |
| COc1cc(OC)cc(N(Cc2noc(C)n2)c2ccc3ncc(-c4cnn(C)c4)nc3n2)c1 [Compound 186] | °C | 177 |
| COc1cc(OC)c(F)c(N(Cc2ncc[nH]2)c2ccc3ncc(-c4cnn(C)c4)nc3n2)c1 (as salt: hydrochloric acid salt) [Compound 23] | °C | 216 |
| COc1cc(OC)cc(N(Cc2n[nH]c(=O)o2)c2ccc3ncc(-c4cnn(C)c4)nc3n2)c1 [Compound 229] | °C | 232 |
| COc1cc(OC)c(F)c(/N=c2\ccc3ncc(-c4cnn(C)c4)nc3n2CCCN2CCCC2=O)c1F [Compound 55] | °C | 227 |

----------
- system: Ba/F3-FGFR1-transfected cells (Homo sapiens)
- Construct: BAF3-FGFR1 (MIN IL3) pIC50; other: minus IL3
- Sequence (P11362 whole entry, change not shown): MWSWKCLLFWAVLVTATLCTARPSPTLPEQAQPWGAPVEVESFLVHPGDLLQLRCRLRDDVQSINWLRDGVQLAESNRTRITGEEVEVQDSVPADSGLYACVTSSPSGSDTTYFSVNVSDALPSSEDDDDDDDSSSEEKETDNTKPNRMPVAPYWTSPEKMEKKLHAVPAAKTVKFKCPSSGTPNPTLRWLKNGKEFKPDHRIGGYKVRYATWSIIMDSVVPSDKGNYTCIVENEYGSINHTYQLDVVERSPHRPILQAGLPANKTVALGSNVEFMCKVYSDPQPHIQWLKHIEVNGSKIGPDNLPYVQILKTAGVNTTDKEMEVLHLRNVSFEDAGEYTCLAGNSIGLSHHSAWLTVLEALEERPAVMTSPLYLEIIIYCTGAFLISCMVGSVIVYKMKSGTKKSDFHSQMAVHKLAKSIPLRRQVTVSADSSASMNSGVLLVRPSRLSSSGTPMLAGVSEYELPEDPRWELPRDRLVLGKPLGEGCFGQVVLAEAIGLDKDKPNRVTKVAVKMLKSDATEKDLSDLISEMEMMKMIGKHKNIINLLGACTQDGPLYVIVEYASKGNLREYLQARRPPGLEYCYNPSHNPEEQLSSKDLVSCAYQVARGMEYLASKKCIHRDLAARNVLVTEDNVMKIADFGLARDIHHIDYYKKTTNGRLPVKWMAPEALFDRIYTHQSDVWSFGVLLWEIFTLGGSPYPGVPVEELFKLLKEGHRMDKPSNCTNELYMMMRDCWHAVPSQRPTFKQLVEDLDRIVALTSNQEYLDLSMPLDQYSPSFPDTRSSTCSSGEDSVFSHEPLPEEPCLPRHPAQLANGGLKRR
- test_name: Ba/F3-FGFR1 (minus IL3) cellular proliferation assay, Alamar Blue
- Format: cell-based
Known BAF3-FGFR1 (MIN IL3) pIC50 of a selection of molecules
experimental_endpoint: BAF3-FGFR1 (MIN IL3) pIC50

| molecule | system | value |
| --- | --- | --- |
| COc1cc(OC)c(F)c(/N=c2\ccc3ncc(-c4cnn(C)c4)nc3n2CC2CCC(=O)N2)c1F (stereo not drawn) [Compound 193] | Ba/F3-FGFR1-transfected cells (Homo sapiens) | 8.01 |
| COc1cc(OC)c(F)c(N(Cc2ncc[nH]2)c2ccc3ncc(-c4cn[nH]c4)nc3n2)c1 [Compound 190] | Ba/F3-FGFR1-transfected cells (Homo sapiens) | 8.19 |
| COc1cc(OC)cc(N(Cc2ncc[nH]2)c2ccc3ncc(-c4ccccc4)nc3n2)c1 [Compound 152] | Ba/F3-FGFR1-transfected cells (Homo sapiens) | 7.96 |
| COc1cc(OC)c(F)c(N(CC(O)COC(C)C)c2ccc3ncc(-c4cnn(C)c4)nc3n2)c1F (stereo not drawn) [Compound 63] | Ba/F3-FGFR1-transfected cells (Homo sapiens) | 7.90 |
| COc1cc(OC)c(F)c(/N=c2\ccc3ncc(-c4cnn(C)c4)nc3n2C)c1F (single isomer, unassigned) [Compound 255] | Ba/F3-FGFR1-transfected cells (Homo sapiens) | 7.93 |
| COc1cc(OC)c(F)c(/N=c2\ccc3ncc(-c4cnn(C)c4)nc3n2CCN)c1F [Compound 68] | Ba/F3-FGFR1-transfected cells (Homo sapiens) | 7.86 |

----------
- system: FGFR1 (h) (Homo sapiens, UniProt P11362)
- Sequence (P11362 22-822): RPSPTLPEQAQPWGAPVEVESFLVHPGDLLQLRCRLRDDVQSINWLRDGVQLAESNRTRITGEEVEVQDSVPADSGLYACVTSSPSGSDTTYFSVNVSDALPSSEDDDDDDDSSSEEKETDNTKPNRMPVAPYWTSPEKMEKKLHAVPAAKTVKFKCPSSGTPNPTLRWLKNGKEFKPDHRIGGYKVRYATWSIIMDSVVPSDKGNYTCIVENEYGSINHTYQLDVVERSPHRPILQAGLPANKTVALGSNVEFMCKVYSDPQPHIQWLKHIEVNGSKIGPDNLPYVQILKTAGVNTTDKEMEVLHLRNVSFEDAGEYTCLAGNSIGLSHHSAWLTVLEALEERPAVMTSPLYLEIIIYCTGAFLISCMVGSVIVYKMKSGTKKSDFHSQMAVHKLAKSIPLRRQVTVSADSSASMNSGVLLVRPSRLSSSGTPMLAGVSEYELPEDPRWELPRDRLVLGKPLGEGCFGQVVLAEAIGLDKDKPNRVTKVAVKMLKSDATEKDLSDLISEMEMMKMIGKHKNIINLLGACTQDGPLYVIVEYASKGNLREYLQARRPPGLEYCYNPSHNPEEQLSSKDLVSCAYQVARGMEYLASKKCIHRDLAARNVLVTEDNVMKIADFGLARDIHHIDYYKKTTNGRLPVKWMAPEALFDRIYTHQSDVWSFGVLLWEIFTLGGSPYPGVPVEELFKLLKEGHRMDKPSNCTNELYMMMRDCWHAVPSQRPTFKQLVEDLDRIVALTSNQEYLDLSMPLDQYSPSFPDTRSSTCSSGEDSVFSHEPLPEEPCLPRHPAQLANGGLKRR
- test_name: FGFR1 (enzymatic assay), TR-FRET
- Assay type: biochemical
- protocol_conditions: read-out: FGFR 1 pIC50 (converted)
Known IC50 of a selection of compounds

| compound | IC50 (nM) |
| --- | --- |
| COc1cc(OC)c(F)c(N(C)c2ccc3ncc(-c4cnn(C)c4)nc3n2)c1F (single isomer, unassigned) | 0.468 |
| COc1cc(OC)c(F)c(N(CC2CC(O)C(=O)N2)c2ccc3ncc(-c4cnn(C)c4)nc3n2)c1 (centres unmarked) | 1.62 |
| CCn1cc(-c2cnc3ccc(N(Cc4ncc[nH]4)c4cc(OC)cc(OC)c4F)nc3n2)cn1 | 0.55 |
| COc1cc(OC)c(F)c(N(CC2CCC(=O)N2)c2ccc3ncc(-c4cnn(C5CNC5)c4)nc3n2)c1 (centres unmarked) | 1.78 |
